Target: 72 kDa type IV collagenase (Homo sapiens, UniProt P08253)
Sequence (P08253 whole entry): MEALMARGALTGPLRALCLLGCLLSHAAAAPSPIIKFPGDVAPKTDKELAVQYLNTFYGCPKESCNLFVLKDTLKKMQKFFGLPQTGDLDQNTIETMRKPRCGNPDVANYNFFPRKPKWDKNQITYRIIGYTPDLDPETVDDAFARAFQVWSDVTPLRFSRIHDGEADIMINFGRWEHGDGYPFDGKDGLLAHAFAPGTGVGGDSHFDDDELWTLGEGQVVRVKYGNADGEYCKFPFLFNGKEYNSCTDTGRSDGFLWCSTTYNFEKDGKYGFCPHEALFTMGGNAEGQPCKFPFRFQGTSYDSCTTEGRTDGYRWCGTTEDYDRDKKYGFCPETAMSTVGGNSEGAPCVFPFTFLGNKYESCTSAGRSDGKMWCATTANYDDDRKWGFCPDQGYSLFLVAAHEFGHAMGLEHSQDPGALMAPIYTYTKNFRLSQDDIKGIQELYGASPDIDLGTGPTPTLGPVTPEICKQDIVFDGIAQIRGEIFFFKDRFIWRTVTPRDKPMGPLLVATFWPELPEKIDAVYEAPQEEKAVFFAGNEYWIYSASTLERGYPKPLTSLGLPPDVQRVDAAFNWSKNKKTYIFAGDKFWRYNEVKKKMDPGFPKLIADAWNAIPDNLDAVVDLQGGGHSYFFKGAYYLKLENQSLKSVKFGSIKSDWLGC
Assay: Inhibition of recombinant MMP2 (unknown origin) using […] as substrate incubated for 5 mins prior to substrate addition measured after 60 mins by UV-Vis spectrophotometry
pIC50: −log10 of the molar value.
QUANTITY_KIND: pIC50

GET /values?readout=pIC50&item= CC(C)C[C@H](NC(=O)NCc1ccccc1)C(=O)NO
< 3.30

Numbers sourced from ChEMBL document CHEMBL2390954.
